System: PfSIP2 AP2 domain 1 (GST-tagged)
Measurement description: gcPBM binding intensity (ln(normalized median fluorescence intensity)); higher = stronger DNA binding
Over roughly 25,000 sequences, “ln(normalized median fluorescence intensity)” has its median near 7.1; the highest 2% begin near 10. This is one part of a sample in which the highest values are shown more often than they occur.
The threshold is inclusive: gcPBM binding intensity (ln) of exactly 7 counts as T; values below receive F.

# example entries with known answers
Exercise: Please check the record `GACAATTATATGTAGGTGCATATACAAATTTTTTAA` and state if its gcPBM binding intensity (ln) is at or above 7.
Solution: T

Exercise: Could you tell me if the measured gcPBM binding intensity (ln) of TAGAATAAGATAGATATACACACCATTATAAATATA [CACACA_site2500] reaches 7 or more?
Solution: F

Now look at this one.
Exercise: Reported gcPBM binding intensity (ln) reaches at least 7 for AATTCATTTTACCCATGTACACAATTATATTTTATA [XGTACX_site4127] ?
Solution: T

###

# Lookup of reported gcPBM binding intensity (ln) keyed by entry
System: PfSIP2 AP2 domain 1 (GST-tagged)
Measurement description: gcPBM binding intensity (ln(normalized median fluorescence intensity)); higher = stronger DNA binding
The full ranking holds about 25,000 sequences; the median of “ln(normalized median fluorescence intensity)” is about 7.1, and the highest 2% start at about 10. This excerpt belongs to a sample that is enriched for the highest values.
No unit in the answer, only the number.

Exercise: Entry under review: TATAAACGCACCTACACACACAACGTAAATGCATTG [CACACA_site7120] . Reported gcPBM binding intensity (ln)?
Solution: 10.6

Continuing:
Exercise: Which gcPBM binding intensity (ln) is reported for this sequence? TATAAACCCACCTACACACACAACGTAAATGCATTG [CACACA_site2238]
Solution: 7.01

Exercise: Return reported gcPBM binding intensity (ln); argument: AAATTGAGACAACAGGTGCATATAAATATACAGTGT [GTGCAC_site9634]
Solution: 10.6

Exercise: Given the sequence AAAATGTATATTGGCGCATGTAAACAAATACTATAC [TGCATGCA_site385] , what is its reported gcPBM binding intensity (ln)?
Solution: 7.13

Exercise: Would you kindly share the measured gcPBM binding intensity (ln) for AATACATATTCAAAGGTGCAAAATAAAAATATACAT [GTGCAC_site9743] ?
Solution: 11

###

Tested on: PfSIP2 AP2 domain 1 (GST-tagged)
Measurement description: gcPBM binding intensity (ln(normalized median fluorescence intensity)); higher = stronger DNA binding
The full ranking holds about 25,000 sequences; the median of “ln(normalized median fluorescence intensity)” is about 7.1, and the highest 2% start at about 10. The list comes from a sample in which the highest values are over-represented; it also holds close analogues and randomly drawn sequences.
Below, each of the sequences is paired with its reported gcPBM binding intensity (ln) value.
# print the numeric value only

Answered examples (8):
Exercise: Which gcPBM binding intensity (ln) value belongs to `TAATATTTTAATTGTGTGCACATTAATATTATAAAA` ?
Solution: 9.3

Exercise: Need gcPBM binding intensity (ln) of TTGCAATAATGTTGCACACTAAATAGTCATATATAA [CACACA_site263] , thanks.
Solution: 7.31

Exercise: Which gcPBM binding intensity (ln) is listed for AAAAAAAAAAAAAACACACACACACGCACATATACA [CACACA_site7288] ?
Solution: 7.66

Exercise: Dear colleague, I am looking for the recorded gcPBM binding intensity (ln) of the following sequence: ACATATGAATATAATACACACTTGTATTATTAATAT [CACACA_site8546]
Solution: 6.85

Exercise: What value of measured gcPBM binding intensity (ln) is listed for `TATTAATATATAGTAGTGCAATAAAGATATACTGAA` ?
Solution: 8.3

Exercise: Suppose we examine the sequence TTTTTTTTTTTTGGATGTACTTAATGAAAATGTTAC [XGTACX_site8980] ; what gcPBM binding intensity (ln) value has been reported?
Solution: 7.36

Exercise: // gcPBM binding intensity (ln) lookup, key: CATTTTATTCTATATGCATGTTAAAAAATGTGTTGA [TGCATGCA_site128]
Solution: 7.12

Exercise: Entry TTATATATTTATATATGTACACATTTTACCATTTTT [XGTACX_site2142] has what gcPBM binding intensity (ln)?
Solution: 6.9

Further cases:
Exercise: Would you kindly share the measured gcPBM binding intensity (ln) for TGCACGCACAGACACACACACAACTAAAAAATAATG [CACACA_site7250] ?
Solution: 7.33

Exercise: Given the sequence CATTATGTCATAAATGCACACATATATATATACATA [CACACA_site8454] , what is its reported gcPBM binding intensity (ln)?
Solution: 7.38

Exercise: Request the reported gcPBM binding intensity (ln) associated with AAATATAAACTCAGCACACAAACATATATATGTCAT [CACACA_site4004]
Solution: 6.91

Exercise: Can you share its gcPBM binding intensity (ln)? I mean this sequence: GTATTATTTTATGATGCATGTGTATTTCATATATGC [TGCATGCA_site660]
Solution: 6.98
